Where do these numbers come from? They come from the OPERA property sets (Mansouri et al. 2018).

# boiling point per record follows
Express the result in °C but write the number alone.

BrCCCCCBr    222
CCCOC(N)=O    196
C=CCCO    114
CCc1sccc1C    161
FC(F)(F)c1cccc(Br)c1    152
CCC(=O)OCc1ccco1    195
CCCCC(=O)CCCC    188
CC(=O)C1CC1    111
CCCCC(CC)COC(C)=O (centres undefined)    199
CCCC(=O)C(C)(C)C    147

Continue with the next compound.
Enquiry: Return reported boiling point; argument: FC(F)(F)C(F)(Cl)Cl
Return: 4

----------
# log10 Koa per record follows
Simply state the number, no unit and no words.

C1CCNC1    4.07

Enquiry: Return reported log10 Koa; argument: C1=CCCCC1
Return: 2.83

Enquiry: Return reported log10 Koa; argument: CC(=O)OCCC(C)C
Return: 3.94

Enquiry: Return reported log10 Koa; argument: Clc1ccccc1-c1ccccc1Cl
Return: 7.18

Enquiry: Return reported log10 Koa; argument: Cc1cccc(C)c1
Return: 3.78

Enquiry: Return reported log10 Koa; argument: Clc1ccc(Cl)c(-c2ccccc2Cl)c1
Return: 7.6
